Reference for the values: patent US10551389B2

- TARGET_OF_ASSAY: Bcl-XL (Homo sapiens)
- PROTOCOL: Inhibition of Bcl-XL (disruption of Bcl-XL/Bim interaction)
- Format: binding
- EXPERIMENTAL_CONDITIONS: compound at 25 μM
Readings of % Inhibition (25 μM) Bcl-XL for the listed molecules

Completed entries (count: 2):
INSERT INTO results (chemical_structure, result) VALUES
  ('Cn1cc(C(=O)C2CCCCC2)c2cc(C(=O)NS(=O)(=O)c3ccc(CN(CCSc4ccccc4)Cc4ccc5c(c4)OCO5)cc3)ccc21', '<2.0%'),
  ('O=C(NS(=O)(=O)c1ccc(CN(CCSc2ccccc2)Cc2ccc3c(c2)OCO3)cc1)c1ccc(C(c2c[nH]c3ccccc23)c2c[nH]c3ccccc23)cc1', '<2.0%');

Kindly review the next molecule as well.
Look up % Inhibition (25 μM) Bcl-XL for this molecule: O=C(NS(=O)(=O)c1ccc(CN(CCSc2ccccc2)Cc2ccc3c(c2)OCO3)cc1)c1ccc2c(ccn2Cc2ccc(C(F)(F)F)cc2C(F)(F)F)c1
<2.0%

###

- TARGET_OF_ASSAY: Bcl-XL (Homo sapiens)
- PROTOCOL: Inhibition of Bcl-XL (disruption of Bcl-XL/Bim interaction)
- Assay type: binding
- EXPERIMENTAL_CONDITIONS: compound at 25 μM
PARAMETER: % Inhibition (25 μM) Bcl-XL

INSERT INTO assay_data (compound, parameter, result) VALUES
  ('COc1cc2c(cc1OC)C(c1ccccc1)N(Cc1ccc(S(=O)(=O)NC(=O)c3ccc(C(c4c[nH]c5ccccc45)c4c[nH]c5ccccc45)cc3)cc1)CC2 (stereo not drawn) [SZ8TA31]', '% Inhibition (25 μM) Bcl-XL', '<2.0%'),
  ('COc1cccc(CN(CCSc2ccccc2)Cc2ccc(S(=O)(=O)NC(=O)CCCN3C(=O)C(c4ccc(F)cc4F)=C(c4ccc(F)cc4F)C3=O)cc2)c1 [SZ17TA20]', '% Inhibition (25 μM) Bcl-XL', '<2.0%');

Look up % Inhibition (25 μM) Bcl-XL for this compound: O=C(NS(=O)(=O)c1ccc(CN(CCSc2ccccc2)Cc2ccc3c(c2)OCO3)cc1)c1cccc(NCCc2ccccc2)c1 [SZ31TA44]
<2.0%

###

- TARGET_OF_ASSAY: UniProtKB Q07820
- PROTOCOL: Inhibition of Mcl-1 (disruption of Mcl-1/Bim interaction)
- Assay type: binding
- EXPERIMENTAL_CONDITIONS: compound at 25 μM
PARAMETER: % Inhibition (25 μM) Mcl-1 (%)

Completed entries (count: 2):
INSERT INTO measurements (compound, target_of_assay, parameter, quantitative_result) VALUES
  ('O=C(NS(=O)(=O)CCN(CCSc1ccccc1)Cc1ccc2c(c1)OCO2)c1ccc2c(ccn2Cc2ccc(C(F)(F)F)cc2C(F)(F)F)c1', 'UniProtKB Q07820', '% Inhibition (25 μM) Mcl-1', 42.8),
  ('O=C(NS(=O)(=O)c1ccc(CN(CCSc2ccccc2)Cc2ccc3c(c2)OCO3)cc1)c1ccc2c(ccn2Cc2ccc(C(F)(F)F)cc2C(F)(F)F)c1', 'UniProtKB Q07820', '% Inhibition (25 μM) Mcl-1', 32.4);

(1) O=C(NS(=O)(=O)CCN1CCC(Cc2ccccc2)CC1)c1ccc2c(ccn2Cc2ccc(C(F)(F)F)cc2C(F)(F)F)c1
(2) Cn1cc(C(=O)C2CCCCC2)c2cc(C(=O)NS(=O)(=O)c3ccc(COc4ccc5c(=O)cc(-c6ccccc6)oc5c4)cc3)ccc21
Of 1 versus 2 , which is the one with smaller reported % Inhibition (25 μM) Mcl-1? Answer by stating the label of the chosen item.
1
(1: 18.1%, 2: 68.5%)

(a) O=C(NS(=O)(=O)c1ccc(CN2CCN(c3ccccc3)CC2)cc1)c1ccc2c(ccn2Cc2ccc(C(F)(F)F)cc2C(F)(F)F)c1
(b) CC1(C)CCN(c2ccc(C(=O)NS(=O)(=O)CCN3CCc4ccccc4C3)cc2)CC1
Lab note: record which item had the higher % Inhibition (25 μM) Mcl-1, a or b . Answer by stating the label of the chosen item.
a

###

- TARGET_OF_ASSAY: Bcl-XL (Homo sapiens, UniProt Q07817)
- Sequence (Q07817 whole entry, species assumed): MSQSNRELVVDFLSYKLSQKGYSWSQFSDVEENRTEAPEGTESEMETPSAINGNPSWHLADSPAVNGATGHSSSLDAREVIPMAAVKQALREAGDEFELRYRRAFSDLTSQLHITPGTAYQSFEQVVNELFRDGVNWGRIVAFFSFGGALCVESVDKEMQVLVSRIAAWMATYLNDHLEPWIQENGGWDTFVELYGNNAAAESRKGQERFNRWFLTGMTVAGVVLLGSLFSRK
- PROTOCOL: Inhibition of Bcl-XL (disruption of Bcl-XL/Bim interaction)
- Assay type: binding
- EXPERIMENTAL_CONDITIONS: compound at 50 μM
PARAMETER: % Inhibition (50 μM) Bcl-XL

INSERT INTO measurements (compound, result) VALUES
  ('O=C(NS(=O)(=O)c1ccc(CN(CCSc2ccccc2)Cc2ccc3c(c2)OCO3)cc1)c1ccc2c(ccn2Cc2ccc(C(F)(F)F)cc2C(F)(F)F)c1', '<2.0%'),
  ('O=C(NS(=O)(=O)c1ccc(CN(CCSc2ccccc2)Cc2ccc3c(c2)OCO3)cc1)c1ccc(C(c2c[nH]c3ccccc23)c2c[nH]c3ccccc23)cc1', '<2.0%'),
  ('COc1cccc(CN(CCSc2ccccc2)Cc2ccc(S(=O)(=O)NC(=O)c3ccc4c(ccn4Cc4ccc(C(F)(F)F)cc4C(F)(F)F)c3)cc2)c1', '<2.0%'),
  ('NS(=O)(=O)c1ccc(CN(CCSc2ccccc2)Cc2ccc(S(=O)(=O)NC(=O)Cn3c4ccccc4c4ccccc43)cc2)cc1', '<2.0%'),
  ('COc1cccc(CN(CCSc2ccccc2)Cc2ccc(S(=O)(=O)NC(=O)c3ccc4c(c3)c(C(=O)C3CCCCC3)cn4C)cc2)c1', '<2.0%');

Look up % Inhibition (50 μM) Bcl-XL for this compound: Cn1cc(C(=O)c2cccs2)c2cc(C(=O)NS(=O)(=O)c3ccc(CN(CCSc4ccccc4)Cc4ccc5c(c4)OCO5)cc3)ccc21
<2.0%

Look up % Inhibition (50 μM) Bcl-XL for this compound: COc1cc2c(cc1OC)C(c1ccccc1)N(Cc1ccc(S(=O)(=O)NC(=O)c3ccc(C(c4c[nH]c5ccccc45)c4c[nH]c5ccccc45)cc3)cc1)CC2 (stereo not drawn)
<2.0%

Look up % Inhibition (50 μM) Bcl-XL for this compound: O=C(NS(=O)(=O)c1ccc(CN(CCSc2ccccc2)Cc2ccc3c(c2)OCO3)cc1)c1cccc(NCCc2ccccc2)c1
<2.0%

Look up % Inhibition (50 μM) Bcl-XL for this compound: O=C(NS(=O)(=O)c1ccc(CN2CCN(c3ccccc3)CC2)cc1)c1ccc2c(ccn2Cc2ccc(C(F)(F)F)cc2C(F)(F)F)c1
<2.0%

###

- TARGET_OF_ASSAY: UniProt Q07817
- PROTOCOL: Inhibition of Bcl-XL (disruption of Bcl-XL/Bim interaction)
- Type: binding
- EXPERIMENTAL_CONDITIONS: compound at 25 μM
PARAMETER: inhibition at 25 µM (%)

Completed entries (count: 6):
INSERT INTO assay_data (compound, target_of_assay, quantitative_result) VALUES
  ('Cc1nc(-c2ccccc2)sc1C(=O)NS(=O)(=O)c1ccc(CN(CCSc2ccccc2)Cc2ccc3c(c2)OCO3)cc1', 'UniProt Q07817', 29.6),
  ('Cn1cc(C(=O)C2CCCCC2)c2cc(C(=O)NS(=O)(=O)c3ccc(-c4ccc(C(C)(C)C)cc4)cc3)ccc21', 'UniProt Q07817', 30.7),
  ('COc1cccc(CN(CCSc2ccccc2)Cc2ccc(S(=O)(=O)NC(=O)c3ccc(OC(F)(F)F)cc3)cc2)c1', 'UniProt Q07817', 4.1),
  ('O=C(NS(=O)(=O)c1ccc(CN(CCSc2ccccc2)Cc2ccc3c(c2)OCO3)cc1)c1ccc(CCc2ccccn2)cc1', 'UniProt Q07817', 40.2),
  ('COc1cc2c(cc1OC)C(c1ccccc1)N(Cc1ccc(S(=O)(=O)NC(=O)c3ccc(-c4ccc(F)cc4)cc3)cc1)CC2 (centres unmarked)', 'UniProt Q07817', 14.4),
  ('Cc1noc(C)c1-c1ccc(S(=O)(=O)NC(=O)c2ccc(CN3C(=O)C(c4ccc(F)cc4F)=C(c4ccc(F)cc4F)C3=O)cc2)cc1', 'UniProt Q07817', 26);

(I) O=C(Cn1c2ccccc2c2ccccc21)NS(=O)(=O)c1ccc(CN(CCSc2ccccc2)Cc2ccc3c(c2)OCO3)cc1
(II) O=C(NS(=O)(=O)c1ccc(-c2ccc(C(F)(F)F)cc2)cc1)c1cccc(NCCc2ccccc2)c1
Of I versus II , which is the one with smaller reported inhibition at 25 µM? Answer by stating the label of the chosen item.
I

###

- TARGET_OF_ASSAY: Mcl-1 (Homo sapiens, UniProt Q07820)
- Sequence (Q07820 whole entry, species assumed): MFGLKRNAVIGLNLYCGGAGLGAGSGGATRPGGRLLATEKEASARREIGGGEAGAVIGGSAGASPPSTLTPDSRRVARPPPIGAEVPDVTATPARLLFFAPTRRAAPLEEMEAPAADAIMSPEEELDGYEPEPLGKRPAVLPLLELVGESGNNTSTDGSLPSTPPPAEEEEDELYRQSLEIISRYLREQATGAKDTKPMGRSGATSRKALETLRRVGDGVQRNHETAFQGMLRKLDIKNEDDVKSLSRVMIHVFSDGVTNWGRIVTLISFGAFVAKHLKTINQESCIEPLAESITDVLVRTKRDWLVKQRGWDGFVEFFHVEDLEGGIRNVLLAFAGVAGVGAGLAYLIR
- PROTOCOL: Inhibition of Mcl-1 (disruption of Mcl-1/Bim interaction)
- Type: binding
- EXPERIMENTAL_CONDITIONS: compound at 25 μM
PARAMETER: % Inhibition (25 μM) Mcl-1 (%)

Completed entries (count: 6):
INSERT INTO results (molecule, target_of_assay, quantitative_result) VALUES
  ('CN(CCc1ccccc1)Cc1ccc(S(=O)(=O)NC(=O)c2ccc(C(c3c[nH]c4ccccc34)c3c[nH]c4ccccc34)cc2)cc1', 'Mcl-1 (Homo sapiens, UniProt Q07820)', 14.2),
  ('O=C(NS(=O)(=O)c1ccc(-c2ccc(Oc3ccccc3)cc2)cc1)c1ccc(CCc2ccccn2)cc1', 'Mcl-1 (Homo sapiens, UniProt Q07820)', 18.8),
  ('O=C(CC1Sc2ccccc2NC1=O)NS(=O)(=O)c1ccc(CN(CCSc2ccccc2)Cc2c(F)cccc2Cl)cc1 (stereo not shown)', 'Mcl-1 (Homo sapiens, UniProt Q07820)', 47.4),
  ('Cn1cc(C(=O)c2cccs2)c2cc(C(=O)NS(=O)(=O)CCN(CCSc3ccccc3)Cc3ccc4c(c3)OCO4)ccc21', 'Mcl-1 (Homo sapiens, UniProt Q07820)', 46.8),
  ('CC1(C)CCN(c2ccc(C(=O)NS(=O)(=O)c3ccc(CNc4cccc([N+](=O)[O-])c4)cc3)cc2)CC1', 'Mcl-1 (Homo sapiens, UniProt Q07820)', 7.1),
  ('[N-]=[N+]=NS(=O)(=O)c1ccc(CN(CCSc2ccccc2)Cc2ccc(S(=O)(=O)NC(=O)c3ccc(-c4ccc(F)cc4)cc3)cc2)cc1', 'Mcl-1 (Homo sapiens, UniProt Q07820)', 30);

(a) COc1cccc(CN(CCSc2ccccc2)Cc2ccc(S(=O)(=O)NC(=O)CCCN3C(=O)C(c4ccc(F)cc4F)=C(c4ccc(F)cc4F)C3=O)cc2)c1
(b) NS(=O)(=O)c1ccc(CN(CCSc2ccccc2)Cc2ccc(S(=O)(=O)NC(=O)Cn3c4ccccc4c4ccccc43)cc2)cc1
(c) COc1cccc(CN(CCSc2ccccc2)Cc2ccc(S(=O)(=O)NC(=O)c3ccc4c(ccn4Cc4ccc(C(F)(F)F)cc4C(F)(F)F)c3)cc2)c1
Thanks in advance: please rank these 3 entries by % Inhibition (25 μM) Mcl-1, highest to lowest. List the labels, following the order given in the request.
b, c, a
(b: 35.2%, c: 18.0%, a: 7.2%)

(I) COc1cccc(CN(CCSc2ccccc2)Cc2ccc(S(=O)(=O)NC(=O)c3ccc(-c4ccccn4)cc3)cc2)c1
(II) O=C(NS(=O)(=O)c1ccc(CN2CCN(c3ccccc3)CC2)cc1)c1ccc(-c2ccc(F)cc2)cc1
Lab note: record which item had the higher % Inhibition (25 μM) Mcl-1, I or II . Answer by stating the label of the chosen item.
I
(I: 64.9%, II: 9.0%)
